system: HT-29; experiment: NCI tumour cell line growth inhibition, 48 h
Active and inactive are the calls of the source. Rule as the data show it: active = GI50 up to about 1.1 µM and inactive = higher. Where a SMILES comes first, the peptide text is derived from it. [ ]: non-standard residue; d: D form. Ac5c = NC1(C(=O)O)CCCC1
Classes used: active, inactive

1) C=C1C[C@H](O)[C@H](Br)C(C)(C)C12CCC(C)(Cl)C(Br)C2 (some centres undefined): active
2) COC(=O)C12CC(C3CC31)C1CC12 (centres undefined): inactive
3) NC1(C(=O)NC2(C(=O)O)CCCC2)CCCC1 (H-[Ac5c]-[Ac5c]-OH): inactive
4) C#CCn1c(=O)c(C)cn(/C(=C/C(=O)OCC)C(=O)OCC)c1=O: inactive
5) O=C(O)COc1ccc(C(=O)/C(SS/C(C(=O)c2ccc(OCC(=O)O)c(Cl)c2Cl)=C2\C=C(c3ccc(F)cc3)SS2)=C2/C=C(c3ccc(F)cc3)SS2)c(Cl)c1Cl: inactive
6) C=C(C)[C@H]1CC(=O)[C@@]2(C)C[C@H]3O[C@]3(C)CC/C=C(\C)CC[C@H]12: inactive
7) O=P1(N(CCCl)CCCl)Oc2c(Cl)cc(Cl)c(Cl)c2Cc2c(Cl)c(Cl)cc(Cl)c2O1: inactive
8) CCOC(=O)CC(NC(=O)c1nc[nH]c1/N=N/N(C)C)C(=O)OCC (centres undefined): inactive
9) CCN(CC)CCNc1ccc2ncn3c4cc(O)ccc4c(=O)c1c23: inactive

###

Recorded GI50 for the following molecules
tested on: RXF 393; experiment: NCI tumour cell line growth inhibition, 48 h
Active and inactive are the calls of the source. Rule as the data show it: active = GI50 up to about 1.1 µM and inactive = higher.
Property Label: GI50

1. Cc1ccc(OCC2=NN3C(=O)/C(=C\c4ccc([N+](=O)[O-])o4)SC3N2)cc1 (stereo unspecified): 14.9 µM (inactive)
2. COc1cc2c(cc1OCCCN1C(=O)c3cccc4cccc(c34)C1=O)N=C[C@@H]1CCCN1C2=O: 14.9 µM (inactive)
3. CC(=O)CN/C(C)=N/Nc1ccc([N+](=O)[O-])cc1[N+](=O)[O-]: > 100 µM (inactive)
4. N#CC(c1nc2ccccc2s1)c1nc(Cl)ncc1Br (stereo unspecified): 26.9 µM (inactive)
5. c1cnc2c(c1)-n1cccc1C1(CCOCC1)NN2: > 100 µM (inactive)
6. Cn1cnc([N+](=O)[O-])c1Sc1n[nH]c(-c2ccc(Cl)cc2)n1: 13.3 µM (inactive)
7. COc1ccc(-c2coc3cc(OC)cc(O)c3c2=O)cc1 [4',7-DIMETHOXY-5-HYDROXYGENISTEIN]: 27.9 µM (inactive)
8. Brc1ccc(C2C3CSc4ccccc4C3=NN2c2ccccc2)cc1 (stereo unspecified): > 100 µM (inactive)
9. COc1ccc(N2C(=O)CC(c3c[nH]c4ccccc34)C2=O)cc1 (stereo unspecified): > 100 µM (inactive)
10. CCN(CC)CC(O)c1ccc2ccc3ccccc3c2c1 (stereo unspecified): 16.8 µM (inactive)
11. Cn1c(=O)c2c(nc3n2CCC(=O)N3)n(C)c1=O: > 100 µM (inactive)

###

test system: SK-OV-3; test: NCI tumour cell line growth inhibition, 48 h
The source made the active and inactive calls. No stated cut-off is given here; in the data, active = GI50 up to about 1.1 µM and inactive = higher.
Classes used: active, inactive

1. O=C(/C=C/c1ccccc1)Oc1cccc2cccnc12: inactive
2. CC(=O)OCC1OC(O/C=C(\CN=[N+]=[N-])C(C)=O)C(OC(C)=O)C(OC(C)=O)C1OC(C)=O (stereo not given): inactive
3. O=C1C=CC(=O)C(CNc2ccc(C(=O)OC34CC5CC(CC(C5)C3)C4)cc2)=C1: inactive
4. COc1cc([N+](=O)[O-])c(S(=O)(=O)[O-])cc1-[n+]1nc(C(=O)Nc2ccccc2)nn1-c1ccc([N+](=O)[O-])c(S(=O)(=O)O)c1: inactive
5. CC12CC(=O)C3C(C(=O)C1)C32C (stereo not given): inactive
6. CS(=O)(=O)OCC1CCCCCCCCCCC12SCCCS2 (stereo not given): inactive
7. CC(C)c1nc2c(Cl)c3ncccc3cc2[nH]c1=O: inactive
8. Cc1cc(NC(=O)NC(=O)c2ccccc2NC(=O)C(C)N)ccc1Oc1ncc(Br)cn1 (stereo not given): active
9. CC(C)[Si](OC/C(=C/COC(C)(C)C)[C@H]1CC=C(C(=O)c2ccccc2N2CN(C)C(=O)N(C)C2)C1)(C(C)C)C(C)C: inactive
10. CC(Oc1ccc2c(-c3ccc(Cl)cc3)cc(=O)oc2c1)C(=O)O (stereo not given): inactive

###

tested on: U-251; assay: NCI tumour cell line growth inhibition, 48 h
Counter-ions that a name gives are not always drawn. Activity calls are given as the source filed them. Rule as the data show it: active = GI50 up to about 1.1 µM and inactive = higher. Where a SMILES comes first, the peptide text is derived from it. [ ]: non-standard residue; d: D form. Ac5c = NC1(C(=O)O)CCCC1
Classes used: active, inactive

1) NC1(C(=O)NC2(C(=O)O)CCCC2)CCCC1 (H-[Ac5c]-[Ac5c]-OH): inactive
2) C#C[C@]1(O)CCC2C3CCc4cc(Oc5nc(F)nc(-n6c(C)nc7cc8ccccc8cc76)n5)ccc4C3CCC21C (stereo partly specified): inactive
3) COc1ccc2c(=O)c(C)c(-c3ccccc3)oc2c1CN(C)C [DIMEFLINE HYDROCHLORIDE]: inactive
4) C/C(=N\Nc1nc2cc(Cl)ccc2s1)c1ccccn1: active
5) O=C1c2ccccc2C(=O)c2oc(Br)cc21: inactive
6) CN(C)CCNC(=O)c1cccc2[nH]c(-c3cccnc3)nc12: inactive

###

tested on: IGROV-1; experiment: NCI tumour cell line growth inhibition, 48 h
Activity calls are given as the source filed them. Rule as the data show it: active = GI50 up to about 1.1 µM and inactive = higher.
Recorded GI50 for the following compounds
Property Label: GI50

1) COc1ccc(/C=C(\NC(=O)c2ccccc2)c2nc3ccccc3[nH]2)cc1OC: > 100 µM (inactive)
2) Clc1ccc(-c2cc(-c3cc4cc(Br)ccc4nc3Cl)on2)cc1: 12.9 µM (inactive)
3) CC(Oc1ccc2c(-c3ccc(Cl)cc3)cc(=O)oc2c1)C(=O)O (stereo not given): > 100 µM (inactive)
4) Oc1cc(-c2ccc(F)cc2)nc2ncc(Cl)cc12: 17.1 µM (inactive)
5) CN(C)CCCNC(=O)N/N=C\c1cccc2ccccc12: > 10 µM (inactive)
6) CCCCNc1nc(SC)nc2[nH]cnc12: > 100 µM (inactive)
7) Cc1ccc(C)c(NC(=O)CC/C(=N\NC(=O)c2c(O)ccc3ccccc23)C(C)C(=O)c2ccc(O)cc2)c1 (stereo not given): 52 µM (inactive)
8) CC(C)(C)[Si](Nc1ccccc1)(c1ccccc1)c1ccccc1: 14.7 µM (inactive)
9) COc1ccc2c(c1)[n+]([O-])c(C(=O)C/C(=N/NC(=O)c1ccccc1O)C(=O)Nc1ccc(Cl)c(C(F)(F)F)c1)c(C)[n+]2[O-]: 44 µM (inactive)
10) Cc1ccc(CC(Cc2ccccc2C)C(=O)O)c(C(=O)O)c1 (stereo not given): > 100 µM (inactive)
11) O=C(NCCCC/N=c1/cccccc1NCCCCNC(=O)OCc1ccccc1)OCc1ccccc1: 20.9 µM (inactive)
12) CC(=O)O[C@H]1/C(=C/c2ccc(N(C)C)cc2)C[C@H]2[C@@H]3CC=C4C[C@@H](N5CCCC5)CC[C@]4(C)[C@H]3CC[C@]12C: > 100 µM (inactive)
13) CN(C)CCCNc1ccc2c(=O)n(CCN(C)C)c(=O)n3c4ccccc4c(=O)c1c23: 0.148 µM (active)
14) COc1cc(CNc2cnc3ccc(N)cc3n2)cc(OC)c1OC: > 100 µM (inactive)
15) Cc1ccc(-c2nnc(SCC(=O)O)[nH]2)cc1: > 100 µM (inactive)
16) Nc1ccc(Nc2c3ccccc3nc3ccccc23)cc1: 6.65 µM (inactive)
17) N#CCCN(CCC#N)c1ccc(/C=C(/NC(=O)Nc2ccccc2Cl)NC(=O)c2cc([N+](=O)[O-])ccc2Cl)cc1: > 100 µM (inactive)
18) C=C(C)CC(C)(c1cc2ccccc2n1C)N1CCOCC1 (stereo not given): 75.7 µM (inactive)
19) O=C(NNC(=O)c1cc2ccccc2[nH]1)c1cc2ccccc2[nH]1: > 100 µM (inactive)
20) COc1ccc(NC(C(N)=O)c2cc3cc(Br)ccc3nc2Cl)cc1 (stereo not given): 25.5 µM (inactive)

###

tested on: SK-MEL-28; assay: NCI tumour cell line growth inhibition, 48 h
The source made the active and inactive calls. No stated cut-off is given here; in the data, active = GI50 up to about 1.1 µM and inactive = higher.
Recorded GI50 for the following compounds
Property Label: GI50

1. O=C(O)c1cc(/N=N/c2ccc([As](=O)(O)O)cc2)ccc1O: > 100 µM (inactive)
2. NC1(CCCCCCCCCCC(=O)O)CNCCNCCNCCNC1: > 100 µM (inactive)
3. CC(C)(C)c1ccc(-c2nnc(-c3cc(C#N)cc(-c4nnc(-c5ccc(C(C)(C)C)cc5)o4)c3)o2)cc1: > 100 µM (inactive)
4. CCc1ccc(/C=C/C(=O)C2CN(CC)CCC2(O)/C=C/c2ccc(CC)cc2)cc1 (stereo unspecified): 1.55 µM (inactive)
5. NC(=O)/N=C(\N)NC(=O)c1ccccc1: > 100 µM (inactive)
6. CC(O)c1cc2c(s1)C(=O)c1c(C(C)O)csc1C2=O (stereo unspecified): 0.185 µM (active)
7. Nc1c(C(=O)N/N=C/c2ccccc2)sc(=S)n1-c1ccccc1: > 100 µM (inactive)
8. Brc1cc(C2OCCCO2)ccc1OCc1ccccc1: > 100 µM (inactive)
9. CC(N)Cc1ccc(Cl)cc1 (stereo unspecified): > 100 µM (inactive)
10. CC(C)=CC(=O)CC(=O)C(=O)Nc1ccc(Cl)c(Cl)c1: > 100 µM (inactive)
11. NC1=NN(c2ccccc2)C2(c3ccncc3C(=O)O)C1C(N)=NN2c1ccccc1 (stereo unspecified): > 100 µM (inactive)
